All values here come from ChEMBL document CHEMBL1201862.

// GI50 lookup, one value per entry
Test system: SF-539
Procedure text: NCI tumour cell line growth inhibition, 48 h
Activity calls are given as the source filed them. No stated cut-off is given here; in the data, active = GI50 up to about 1.1 µM and inactive = higher.

Worked examples, 6 molecules total:
# input Can you share its GI50? I mean this molecule: CCOC(=O)Cn1c(=O)c2nc(SC)sc2n(-c2ccc(C)cc2)c1=S
# output 36.1 µM (inactive)

# input Also BrC(Br)([P+](c1ccccc1)(c1ccccc1)c1ccccc1)[P+](c1ccccc1)(c1ccccc1)c1ccccc1 ?
# output 13.6 µM (inactive)

# input Also CCCCCCOc1ccc(C(=O)NOCc2ccccc2)cc1 ?
# output > 100 µM (inactive)

# input Also COc1ccccc1/C=C\c1cc(OC)c(OC)c(OC)c1 ?
# output 6.4 µM (inactive)

# input Also NC(C(F)(F)F)(C(F)(F)F)P(=O)(Cc1ccccc1)Cc1ccccc1 ?
# output 42.8 µM (inactive)

# input Also COc1cc(C2c3cccc4cccc(c34)C3CCC(=O)N32)cc(OC)c1O (configuration not stated) ?
# output > 50 µM (inactive)

***
# input Can you share its GI50? I mean this molecule: COc1cc(O)c2c(c1)OCC(Cc1ccc(O)cc1)C2=O (configuration not stated)
# output > 100 µM (inactive)

# input Also CCCCNC(=S)N/C=C1\C(=O)Oc2ccccc2C1=O ?
# output 98.4 µM (inactive)

# input Also CCCc1nc(Cl)c(Cl)c(Cl)n1 ?
# output 26.9 µM (inactive)
